From: patent US20120316071A1

# Experimental System: T1, Recombinant Human DLL4 (R&D Systems Cat#1506-D4/CF) (human, UniProt Q9NR61 27-524)
# T1 construct: Bought recombinant protein; also called delta-like protein 4; Delta-like 4
# Test Summary: ELISA, DLL4 coated on plate, Fab at 20 nM
Result Type: ELISA signal
Number only, please.

Answered examples (3):
Binder	Value Reported
Fab VH5-51_IGHD5-18*01>3_IGHJ4*01 G100K/G104T S28R (H:KT S28R) & V3-4_IGLJ1*01 (Fab, V domains shown, Fab expressed in E. coli; Plasmid A adds CH1 with His6 and Flag tags to the heavy chain; Plasmid E adds lambda CL to the light chain; also called H:KT S28R & L:wt; G100K/G104T S28R & parent) VH: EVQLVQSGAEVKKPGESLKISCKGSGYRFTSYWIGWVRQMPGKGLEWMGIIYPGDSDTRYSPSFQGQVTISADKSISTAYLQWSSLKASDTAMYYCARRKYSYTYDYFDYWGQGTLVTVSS VL: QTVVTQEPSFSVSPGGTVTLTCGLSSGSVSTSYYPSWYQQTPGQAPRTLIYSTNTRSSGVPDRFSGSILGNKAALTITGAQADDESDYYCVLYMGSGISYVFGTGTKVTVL	0.009
Fab VH5-51_IGHD5-18*01>3_IGHJ4*01 G100K/G104T G24L/S28R/G35V (H:KT LRV) & V3-4_IGLJ1*01 (Fab, V domains shown, Fab expressed in E. coli; Plasmid A adds CH1 with His6 and Flag tags to the heavy chain; Plasmid E adds lambda CL to the light chain; also called H:KT LRV & L:wt; G100K/G104T G24L/S28R/G35V & parent) VH: EVQLVQSGAEVKKPGESLKISCKLSGYRFTSYWIVWVRQMPGKGLEWMGIIYPGDSDTRYSPSFQGQVTISADKSISTAYLQWSSLKASDTAMYYCARRKYSYTYDYFDYWGQGTLVTVSS VL: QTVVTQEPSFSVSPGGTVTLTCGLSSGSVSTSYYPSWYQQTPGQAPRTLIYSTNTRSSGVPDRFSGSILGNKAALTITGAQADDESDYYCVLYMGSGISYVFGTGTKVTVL	0.027
Fab VH5-51_IGHD5-18*01>3_IGHJ4*01 G100K/G104T G24A/S28R/G35V (H:KT ARV) & V3-4_IGLJ1*01 (Fab, V domains shown, Fab expressed in E. coli; Plasmid A adds CH1 with His6 and Flag tags to the heavy chain; Plasmid E adds lambda CL to the light chain; also called H:KT ARV & L:wt; G100K/G104T G24A/S28R/G35V & parent) VH: EVQLVQSGAEVKKPGESLKISCKASGYRFTSYWIVWVRQMPGKGLEWMGIIYPGDSDTRYSPSFQGQVTISADKSISTAYLQWSSLKASDTAMYYCARRKYSYTYDYFDYWGQGTLVTVSS VL: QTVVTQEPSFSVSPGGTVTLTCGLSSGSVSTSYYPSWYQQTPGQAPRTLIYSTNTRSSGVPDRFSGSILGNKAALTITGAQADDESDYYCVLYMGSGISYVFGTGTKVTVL	0.054

We now examine a further binder.
Measured ELISA signal, Fab VH5-51_IGHD5-18*01>3_IGHJ4*01 G100K/G104T (H:KT) & V3-4_IGLJ1*01 (Fab, V domains shown, Fab expressed in E. coli; Plasmid A adds CH1 with His6 and Flag tags to the heavy chain; Plasmid E adds lambda CL to the light chain; also called H:KT & L:wt; KT double mutant) VH: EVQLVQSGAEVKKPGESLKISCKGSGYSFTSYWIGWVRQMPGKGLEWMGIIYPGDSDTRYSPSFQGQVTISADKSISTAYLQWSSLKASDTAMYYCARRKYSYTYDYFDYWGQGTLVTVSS VL: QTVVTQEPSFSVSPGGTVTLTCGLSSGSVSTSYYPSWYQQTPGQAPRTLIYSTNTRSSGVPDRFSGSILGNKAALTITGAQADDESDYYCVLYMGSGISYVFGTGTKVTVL : 0.018
